Where do these numbers come from? They come from patent US11912686B2.

biological target: human LPAR1 (Homo sapiens (Human)); experiment: LPAR1 intracellular calcium mobilization assay (antagonist mode, FLIPR); type: cell-based; conditions: CHO-K1 EDG2 cells expressing human LPAR1, LPA 18:2 at EC80 (100 nM), test compound 0.5 nM to 10 μM
Sequence (Q92633 whole entry): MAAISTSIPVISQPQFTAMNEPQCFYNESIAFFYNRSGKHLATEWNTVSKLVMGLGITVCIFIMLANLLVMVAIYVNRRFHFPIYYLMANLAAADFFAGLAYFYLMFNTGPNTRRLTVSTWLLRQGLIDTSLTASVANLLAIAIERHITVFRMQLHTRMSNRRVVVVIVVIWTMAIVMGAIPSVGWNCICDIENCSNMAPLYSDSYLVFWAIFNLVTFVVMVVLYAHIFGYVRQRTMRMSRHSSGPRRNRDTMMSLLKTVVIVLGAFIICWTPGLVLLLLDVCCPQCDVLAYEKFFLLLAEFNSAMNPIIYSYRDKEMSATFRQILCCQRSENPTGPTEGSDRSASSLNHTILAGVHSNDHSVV
Observed Property: EC50 (nM)
Field: numeric (nM). Do not append units.

Molecule	Observed Property	Readout Units	Endpoint Result
C[C@@H](OC(=O)Nc1c(-c2ccc(NC(=O)[C@@H]3C[C@H]3Cl)cn2)nnn1C)c1cc(F)cnc1F	EC50	nM	24

Input COC12CC(C(=O)Nc3ccc(-c4nnn(C)c4NC(=O)O[C@H](C)c4cccnc4Cl)nc3)(C1)C2 . Output EC50: 29.7

Value of EC50 reported for the molecule C[C@@H](OC(=O)Nc1c(-c2ccc(NC(=O)[C@H]3C[C@@H](F)C3)cn2)nnn1C)c1cccnc1Cl is 89.7

Recorded result, C[C@@H](OC(=O)Nc1c(-c2ccc(NC(=O)[C@@H]3C[C@H]3C#N)cn2)nnn1C)c1cc(F)cnc1Cl (mixture of isomers) , EC50: 71.8

Summary for this molecule, C[C@@H](OC(=O)Nc1c(-c2ccc(NC(=O)c3cncc(C(F)F)c3)cn2)nnn1C)c1cc(F)cnc1F : EC50 is 37.7
